Source of measurements: patent US20060020109A1

Target: T1, soluble recombinant HLA-DR2 molecules (MHC class II HLA-DR2 protein) (human)
T1 construct: Soluble, empty protein from Drosophila S2 cells, captured on plates by antibody LB3.1; also called MHC class II DR2 protein; recombinant HLA-DR2 protein
Test: competition ELISA on soluble HLA-DR2; competitor biotinylated Cop 1 (1.5 µM)

[
  {
    "binder": "AEEKYAAYKAAAAAA [synthetic peptide #83]",
    "IC50": "> 1 mM"
  },
  {
    "binder": "EAEAYAAYKAAAAAA [synthetic peptide #88]",
    "IC50": "> 1 mM"
  },
  {
    "binder": "AAEEYKAYAAAAAAA [synthetic peptide #61]",
    "IC50": "> 1 mM"
  },
  {
    "binder": "AAEKVAAAAAAAAAA [synthetic peptide #114]",
    "IC50": "> 1 mM"
  },
  {
    "binder": "AEEKYAAYAAAAAAA [synthetic peptide #56]",
    "IC50": "> 1 mM"
  },
  {
    "binder": "EEAKYAAYKAAAAAA [synthetic peptide #91]",
    "IC50": "> 1 mM"
  },
  {
    "binder": "EAKAYEYAKAAAAAA [synthetic peptide #113]",
    "IC50": "< 0.001 mM"
  },
  {
    "binder": "EKKAYAAAAAAAAAA [synthetic peptide #41]",
    "IC50": "> 1 mM"
  },
  {
    "binder": "EKAEYAAYAAAAAAA [synthetic peptide #72]",
    "IC50": "> 1 mM"
  },
  {
    "binder": "AKEAYAAYKAAAAAA [synthetic peptide #78]",
    "IC50": "> 1 mM"
  },
  {
    "binder": "AAEKYAEYKAAAAAA [synthetic peptide #104]",
    "IC50": "0.02 mM"
  },
  {
    "binder": "AAAKVAAAAAAAAAA [synthetic peptide #116]",
    "IC50": "> 1 mM"
  },
  {
    "binder": "KEKAAAAYAAAAAAA [synthetic peptide #47]",
    "IC50": "> 1 mM"
  },
  {
    "binder": "EEAAYKAAKAAAAAA [synthetic peptide #111]",
    "IC50": "< 0.001 mM"
  },
  {
    "binder": "AAEKAAAAAAAAAAA [synthetic peptide #119]",
    "IC50": "> 1 mM"
  },
  {
    "binder": "AKEEYAAYAAAAAAA [synthetic peptide #62]",
    "IC50": "> 1 mM"
  },
  {
    "binder": "EAAKYEAYKAAAAAA [synthetic peptide #100]",
    "IC50": "0.002 mM"
  },
  {
    "binder": "AKEKYAAYAAAAAAA [synthetic peptide #63]",
    "IC50": "> 1 mM"
  },
  {
    "binder": "AKAAYEAYAAAAAAA [synthetic peptide #64]",
    "IC50": "> 1 mM"
  },
  {
    "binder": "AAKAYEAYAAAAAAA [synthetic peptide #65]",
    "IC50": "> 1 mM"
  }
]
